target: human KDR (VEGFR2) on cells (human, UniProt P35968 20-1356); test: cell-based or functional assay
Sequence (P35968 20-1356): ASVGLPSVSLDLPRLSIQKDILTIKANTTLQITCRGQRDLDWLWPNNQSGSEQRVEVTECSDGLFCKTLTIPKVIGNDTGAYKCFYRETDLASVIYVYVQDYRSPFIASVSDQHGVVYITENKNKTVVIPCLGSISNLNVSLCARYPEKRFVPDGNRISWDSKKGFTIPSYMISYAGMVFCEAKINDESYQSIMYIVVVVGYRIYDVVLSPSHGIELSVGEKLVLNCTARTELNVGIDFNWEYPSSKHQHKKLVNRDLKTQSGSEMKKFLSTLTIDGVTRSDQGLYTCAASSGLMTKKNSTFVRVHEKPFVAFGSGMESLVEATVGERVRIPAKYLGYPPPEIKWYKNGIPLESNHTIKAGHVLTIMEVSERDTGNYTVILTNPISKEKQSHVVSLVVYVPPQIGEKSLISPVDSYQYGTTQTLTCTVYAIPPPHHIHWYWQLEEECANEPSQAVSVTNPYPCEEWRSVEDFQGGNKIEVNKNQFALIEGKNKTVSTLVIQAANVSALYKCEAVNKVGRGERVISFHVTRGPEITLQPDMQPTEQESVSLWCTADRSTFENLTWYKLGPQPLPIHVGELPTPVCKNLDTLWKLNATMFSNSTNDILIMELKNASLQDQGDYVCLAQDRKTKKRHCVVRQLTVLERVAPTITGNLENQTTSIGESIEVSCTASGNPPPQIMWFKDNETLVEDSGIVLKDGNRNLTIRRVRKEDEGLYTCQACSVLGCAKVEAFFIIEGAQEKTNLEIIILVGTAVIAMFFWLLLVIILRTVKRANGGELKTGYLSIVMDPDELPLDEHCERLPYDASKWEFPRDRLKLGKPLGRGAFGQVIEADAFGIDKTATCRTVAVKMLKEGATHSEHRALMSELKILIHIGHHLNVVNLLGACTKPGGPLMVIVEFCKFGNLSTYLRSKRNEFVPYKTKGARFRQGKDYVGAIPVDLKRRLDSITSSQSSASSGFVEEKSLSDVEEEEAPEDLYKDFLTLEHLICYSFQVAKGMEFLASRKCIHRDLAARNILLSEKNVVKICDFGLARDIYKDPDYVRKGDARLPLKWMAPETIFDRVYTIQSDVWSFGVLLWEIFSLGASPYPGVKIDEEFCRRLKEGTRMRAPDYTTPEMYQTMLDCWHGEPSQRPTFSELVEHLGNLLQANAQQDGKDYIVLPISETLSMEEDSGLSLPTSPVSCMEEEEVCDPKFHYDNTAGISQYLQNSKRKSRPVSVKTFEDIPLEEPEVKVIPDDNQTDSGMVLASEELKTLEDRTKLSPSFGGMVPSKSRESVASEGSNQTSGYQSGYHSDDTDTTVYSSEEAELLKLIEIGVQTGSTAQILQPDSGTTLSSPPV
If the reported % Inhibition of VEGF165-mediated pTyr Activity, n = 3 equals or exceeds 60%, assign satisfied. If not, assign not satisfied.

Data request: Textbook exercise: given the entry anti-KDR monoclonal antibody 33E1 (antibody, V domains shown, Fully human mAb from XenoMouse (IgG2 or IgG4 strain); hybridoma supernatant) VH: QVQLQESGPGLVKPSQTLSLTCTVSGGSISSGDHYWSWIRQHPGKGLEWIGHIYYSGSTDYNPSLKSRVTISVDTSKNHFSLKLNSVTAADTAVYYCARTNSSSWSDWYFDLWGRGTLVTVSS VL: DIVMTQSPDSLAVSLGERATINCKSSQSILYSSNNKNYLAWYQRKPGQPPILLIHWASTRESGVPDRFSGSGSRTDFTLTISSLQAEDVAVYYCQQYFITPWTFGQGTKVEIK , state whether its % Inhibition of VEGF165-mediated pTyr Activity, n = 3 is greater than or equal to 60%.
Data returned: not satisfied

Data request: Then this binder: anti-KDR monoclonal antibody 29A3 (antibody, V domains shown, Fully human mAb from XenoMouse (IgG2 or IgG4 strain); hybridoma supernatant) VH: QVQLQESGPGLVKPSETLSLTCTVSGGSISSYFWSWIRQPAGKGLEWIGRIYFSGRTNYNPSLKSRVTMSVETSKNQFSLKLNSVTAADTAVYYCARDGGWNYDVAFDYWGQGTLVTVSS VL: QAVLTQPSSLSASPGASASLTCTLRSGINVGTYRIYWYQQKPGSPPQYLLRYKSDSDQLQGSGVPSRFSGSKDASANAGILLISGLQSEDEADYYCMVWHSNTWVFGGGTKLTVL
Data returned: satisfied

Data request: Then this binder: anti-KDR monoclonal antibody 33D5 (antibody, V domains shown, Fully human mAb from XenoMouse (IgG2 or IgG4 strain); hybridoma supernatant) VH: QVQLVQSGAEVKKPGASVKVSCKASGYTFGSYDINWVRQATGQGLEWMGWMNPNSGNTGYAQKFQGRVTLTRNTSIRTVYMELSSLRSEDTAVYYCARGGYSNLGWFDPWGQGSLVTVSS VL: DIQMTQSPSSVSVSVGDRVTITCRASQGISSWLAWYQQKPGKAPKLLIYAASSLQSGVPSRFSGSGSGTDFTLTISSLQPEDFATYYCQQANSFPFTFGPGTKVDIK
Data returned: satisfied
